B1: PTPN9 (parent)
chain: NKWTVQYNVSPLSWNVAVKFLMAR

Variants of: B1
Test: protein stability index of a GFP-peptide fusion (GPS, HEK-293T) (PSI 1-6); higher = more stable;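 note: lentivirally expressed fusions sorted by FACS into six bins by GFP to DsRed ratio, PSI derived from sequencing read proportions per bin multiplied by bin number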
Details: c terminus: a fixed tail appended
# reported protein stability index; entries follow
# answer = number (no unit)

protein stability index for A17K ? 2.28

protein stability index for V16P ? 1.99

protein stability index for V9T ? 2.65

protein stability index for A17T ? 2.28

protein stability index for K19D ? 3.33

protein stability index for V16S ? 1.87

protein stability index for L21H ? 2.98

protein stability index for W14M ? 2.75

protein stability index for V16G ? 2.55

protein stability index for L12M ? 2.17

Others:
protein stability index for K2M ? 3.14

protein stability index for W3Y ? 2.57

protein stability index for V9Q ? 1.43

protein stability index for W3Q ? 2.35

protein stability index for Y7A ? 3.49
